target: Human TRPC6 (Homo sapiens); construct: expressed in transfected cells; assay: Evaluation of TRPC6 channel inhibitory activity (2), HEK293 cells with stably introduced human TRPC6, OAG stimulation, FLIPR tetra (Compound Nos. 1293 to 1405); type: cell-based; settings: HEK293 cells with stably introduced human TRPC6, OAG 50 μM/0.5% DMSO, read-out: Inhibitory activity (pIC50 class) (converted)
Sequence (Q9Y210 whole entry): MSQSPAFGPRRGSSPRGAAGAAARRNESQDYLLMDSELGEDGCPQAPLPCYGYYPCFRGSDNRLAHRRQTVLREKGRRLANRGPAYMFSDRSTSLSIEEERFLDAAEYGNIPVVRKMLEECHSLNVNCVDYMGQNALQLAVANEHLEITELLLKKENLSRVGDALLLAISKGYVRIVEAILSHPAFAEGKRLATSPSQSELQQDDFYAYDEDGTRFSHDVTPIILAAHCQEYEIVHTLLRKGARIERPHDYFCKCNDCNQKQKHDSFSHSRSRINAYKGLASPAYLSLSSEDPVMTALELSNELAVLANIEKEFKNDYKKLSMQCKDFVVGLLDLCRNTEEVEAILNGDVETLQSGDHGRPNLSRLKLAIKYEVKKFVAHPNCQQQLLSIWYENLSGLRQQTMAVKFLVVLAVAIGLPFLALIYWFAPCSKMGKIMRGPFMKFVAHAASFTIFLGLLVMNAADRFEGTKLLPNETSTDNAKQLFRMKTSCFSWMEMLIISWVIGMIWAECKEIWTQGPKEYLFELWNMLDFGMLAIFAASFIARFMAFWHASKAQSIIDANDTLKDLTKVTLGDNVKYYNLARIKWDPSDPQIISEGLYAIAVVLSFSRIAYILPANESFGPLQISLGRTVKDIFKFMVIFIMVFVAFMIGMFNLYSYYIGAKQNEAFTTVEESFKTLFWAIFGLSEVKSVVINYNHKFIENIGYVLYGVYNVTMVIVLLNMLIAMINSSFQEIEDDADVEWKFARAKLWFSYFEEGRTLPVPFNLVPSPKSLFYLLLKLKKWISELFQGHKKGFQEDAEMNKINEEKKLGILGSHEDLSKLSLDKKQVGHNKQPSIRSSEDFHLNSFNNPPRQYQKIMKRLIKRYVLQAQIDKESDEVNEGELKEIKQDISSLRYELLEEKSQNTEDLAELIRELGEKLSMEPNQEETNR
compounds and their reported IC50

Molecule | Assay target | IC50
Cc1cc(Oc2cc(Cl)ccc2-c2ccc([C@@H](O)CN)cn2)cc(N2CCOCC2)n1 | Human TRPC6 (Homo sapiens) | < 10 nM
Cc1cc(Oc2cc(C#N)ccc2-c2cccc3cnc(N)nc23)cc(N2CCOCC2)n1 | Human TRPC6 (Homo sapiens) | > 1000 nM
Cn1nc(-c2ccccn2)cc1Oc1cc(Cl)cnc1-c1ccc([C@H](F)CN)cn1 | Human TRPC6 (Homo sapiens) | < 10 nM
Cn1nc(C2CCOCC2)cc1Oc1cc(Cl)ccc1-c1ncc(CN)cn1 | Human TRPC6 (Homo sapiens) | 10 to 1000 nM

Lab note: next compound to report on.
stdin: In one line, give reported IC50 of the entry Cc1cc(Oc2cc(Cl)ccc2-c2ccc([C@H](O)CN)cn2)cc(N2CCOCC2)n1 .
stdout: 10 to 1000 nM
